- Test system: PRKACA-PRKAR2A interaction (SmBiT-PRKACA / LgBiT-PRKAR2A), protein kinase A
- Set-up: NanoLuc complementation counter-screen in cell extract, PRKACA with PRKAR2A, loss of luminescence, detects NanoLuc interference
- Condition parameters: counter-screen for NanoLuc interference; 0.5 h, 20 µM; inhibitor
Counter-ions that a name gives are not always drawn.
Task for the reader: assign each of the following compounds its reported Inh (PKA).
API: value field is a number in %; no unit string.

API: value(readout= Inh (PKA), system= PRKACA-PRKAR2A interaction (SmBiT-PRKACA / LgBiT-PRKAR2A), protein kinase A, query= COc1ccc(CCCOC(Cn2ccnc2)c2ccc(OC)cc2)cc1 (stereo not shown) [UM0142776:01, SKF 96365 hydrochloride] )
35.58

And for CCn1c(-c2nonc2N)nc2c(C#CC(C)(C)O)ncc(OC[C@H]3CCCNC3)c21 [UM0141867:01, GSK690693] ?
29.62

And for CCc1cnn2c(NCc3ccc[n+]([O-])c3)cc(N3CCCC[C@H]3CCO)nc12 [UM0142032:01, Dinaciclib (SCH727965)] ?
1.224

And for Clc1ccc(C2(c3ccc(-c4cn[nH]c4)cc3)CCNCC2)cc1 [UM0141900:01, AT7867] ?
29.71

And for O=S(=O)(c1cccc2c(I)cccc12)N1CCCNCC1 [UM0119920:03, ML-7 hydrochloride] ?
17.89

And for O[C@@H](CNC[C@H](O)[C@H]1CCc2cc(F)ccc2O1)[C@@H]1CCc2cc(F)ccc2O1 (racemic) [UM0142211:01, Nebivolol] ?
3.79

And for Clc1cccc(Cl)c1NC1=NCCN1 [UM0134172:02, Clonidine HCl] ?
1.329

And for Cc1nc(NC(=O)N2CCC[C@H]2C(N)=O)sc1-c1ccnc(C(C)(C)C(F)(F)F)c1 [UM0142005:01, BYL-719] ?
2.69

And for Cc1cc(SCc2sc(-c3ccc(C(F)(F)F)c(F)c3)nc2C)ccc1OCC(=O)O [UM0141775:01, GW0742] ?
20.87

And for CN(C)C/C=C/C(=O)Nc1cccc(C(=O)Nc2cccc(Nc3ncc(Cl)c(-c4c[nH]c5ccccc45)n3)c2)c1 [UM0142128:01, THZ2] ?
74.86

And for NC[C@H]1O[C@H](O[C@H]2[C@H](O)[C@@H](O[C@H]3O[C@H](CO)[C@@H](O)[C@H](N)[C@H]3O)[C@H](N)C[C@@H]2N)[C@H](O)[C@@H](O)[C@@H]1O [UM0141465:01, Kanamycin Sulfate] ?
1.064

And for Nc1ncc(-c2ccnc(Nc3ccncc3)n2)c(CC2CC2)n1 [UM0142752:01, PIK-III] ?
17.17

And for CCCCN1CCCCC1C(=O)Nc1c(C)cccc1C (stereo not shown) [UM0142248:01, Bupivacaine HCl] ?
-0.8766

And for Cn1c(=O)c2[nH]cnc2n(C)c1=O [UM0118147:03, Aminophylline] ?
0.6753

And for Cc1ccc(C(=O)c2cc(O)c(O)c([N+](=O)[O-])c2)cc1 [UM0141823:01, Tolcapone] ?
63.96

And for Cc1ccc(Cl)c(Nc2ccccc2C(=O)O)c1Cl [UM0133818:02, Meclofenamate Sodium] ?
21.07
